# Test system: THP-1 viability, CellTiter-Glo luminescence, 72 h
# protocol_description: THP-1 cell cytotoxicity, dose response, cytotoxicity control for Salmonella PhoP regulon inhibitors, S. typhimurium screen hits (AID 2253)
pEC50: −log10 of the molar value.
Label fulfilled for high-side pEC50 (at or above 5) and not fulfilled for low-side pEC50 (below it).

1) Oc1[nH]c(=S)sc1/C=C1\C(c2ccccc2)=Nc2ccccc21    not fulfilled
2) CCc1ccc2[nH]c(=O)c(CN(Cc3ccccc3)C(=O)Nc3ccccc3OC)cc2c1    not fulfilled
3) CNC[C@H](Cc1ccccc1)NC[C@@H](Cc1cccc2ccccc12)NCCc1ccc(C)cc1    fulfilled
4) Nc1ccc2c(c1)C(=O)C(=O)c1ccccc1-2    fulfilled
5) CCCCCCOC(=O)C[N+](C)(C)CCOC1CC2CCC1(C)C2(C)C (stereo not drawn)    fulfilled
6) CCCCCCCCCCOC(=O)Cn1c(COc2ccc(Cl)cc2)[n+](C)c2ccccc21    fulfilled
7) CCCCCN=C(N)N/N=C/c1c[nH]c2ccc(OC)cc12    fulfilled
8) O=[N+]([O-])/C=C/c1cc2ccccc2[nH]1    not fulfilled
9) Cc1cc2nc3ccc(=[N+](C)C)cc-3sc2cc1N    fulfilled
10) O=C(CSc1nc(Nc2ccccc2)nc(N2CCOCC2)n1)Nc1ccc([N+](=O)[O-])cc1    not fulfilled
11) Oc1ccccc1CN1CCCN(Cc2ccccc2O)C1    not fulfilled
12) O=C(CCN1CCc2ccccc2C(c2ccccc2)C1)c1ccc2c(c1)OCCO2 (stereo not drawn)    not fulfilled
13) O=C(NC(=S)NNC(=O)c1ccccc1O)c1ccco1    not fulfilled
14) O=C(N/N=C/c1sc2ccccc2c1O)c1cccc2ccccc12    fulfilled
15) N=c1c2c(n(Cc3ccc(Br)cc3)c3c1CCC3)CCCC2    fulfilled
16) CCCC(=O)NC(c1ccc(C)cc1)c1ccc2cccnc2c1O (stereo not drawn)    fulfilled
17) C#CCOc1ccc(/C=C2\SC(=S)N(Cc3cccnc3)C2=O)cc1    fulfilled
18) Cc1cc(C)c2ccc(N)nc2c1O    fulfilled
19) CCCCCn1c(N)c(C(=O)NCc2cccs2)c2nc3ccccc3nc21    not fulfilled
20) CN1CCN(C(c2ccc(Br)cc2)c2cc(Cl)c3cccnc3c2O)CC1 (stereo not drawn)    fulfilled
